metric: log10(IC50) (log10 of the value in µM)
All values: log10 IC50 [µM].

Assay RORc ligand binding domain (Homo sapiens), sample CC(=O)N1CCN(c2ccc(CN3[C@@H](C)CCC(c4ncccn4)S3(=O)=O)c(F)c2)CC1 (single isomer, unassigned) [Compound 9] , log10(IC50) read: -0.10

Value (log10(IC50), RORc ligand binding domain (Homo sapiens)) for record CC(=O)N1CCN(c2ccc(CN3[C@@H](C)CCC(c4ccncc4)S3(=O)=O)c(F)c2)CC1 (single isomer, unassigned) = 0.34

Value (log10(IC50), RORc ligand binding domain (Homo sapiens)) for record CC(=O)N1CCN(c2ccc(CN3[C@@H](C)CCC(c4cccnc4)S3(=O)=O)c(F)c2)CC1 (single isomer, unassigned) = 0.62

// assay RORc ligand binding domain (Homo sapiens), entry C[C@H]1CCCS(=O)(=O)N1Cc1cc(F)c(N2C[C@@H]3C(n4cnnc4)[C@@H]3C2)cc1F (stereo partly shown) , log10(IC50) value = -0.22

Entry CC1CCC(C2CCCCC2)S(=O)(=O)N1Cc1cc(F)c(N2CC3C(C2)C3n2cnnc2)cc1F (single isomer, unassigned) under RORc ligand binding domain (Homo sapiens) had log10(IC50) of -1.15

Let me check: CC(=O)N1CCN(c2ccc(CN3[C@@H](C)CCC(c4ncccn4)S3(=O)=O)c(F)c2)CC1 (single isomer, unassigned) [Compound 10] , system RORc ligand binding domain (Homo sapiens), measured log10(IC50) is 0.04

Form: item CC1CC[C@H](C)N(Cc2cc(F)c(N3C[C@@H]4C(n5cnnc5)[C@@H]4C3)cc2F)S1(=O)=O (single isomer, unassigned) ; test system RORc ligand binding domain (Homo sapiens); log10(IC50): -1.13
